- System: PF4 receptor
- test.method.notes: PF4 receptor activation by PF4-derived peptides

- substance: "P34-53: peptide PHSPTAQLIATLKNGRKISL (SEQ ID NO:159), derived from residues 34-53 of mature PF4 [Mutant P34-53]"
  activation of PF4 receptor: "does not activate"
- substance: "P37-56: peptide PTAQLIATLKNGRKISLDLQ (SEQ ID NO:158), P34-56 without capping box [Mutant P37-56]"
  activation of PF4 receptor: "does not activate"
